Answer each item with its documented remaining at 20 h.
Test system: clostripain
Construct: is a two-chain proteinase that can be isolated from Clostridium histolyticum; purchased Worthington LS001641
Assay: Clostripain cleavage, LC/MS analysis
Format: in vitro ADME, Clostridium histolyticum
Details: Clostridium histolyticum, clostripain (isolated protease), pH 7.6, 0.2 U clostripain/mg, 1200 min; read-out: remaining % ABD variant
Where no end group is shown, it is not given here.
Express your answer as a number followed by its unit.

Reference set, count: 3
residues	remaining at 20 h
GSSLAEAKEAANAELDSYGVSDFYKKLIDKAKTVEGVEALKDAILAALP [PEP12380]	100%
GSSLAEAKEAANAELDSYGVSDFYKNLIDKAKTVEGVEALKDAILAALP [PEP12379]	96%
GSSLAEAKEAANAELDSYGVSDFYKRLIDKAKTVEGVEALKDAILAALP [PEP07843, reference compound]	54%

Turning now to a further record.
Q) For GSSLAEAKEAANAELDSYGVSDFYKSLIDKAKTVEGVEALKDAILAALP [PEP12381] , what is its reported remaining at 20 h?
A) 97%
